Recorded PET hydrolysis product formed, one value per entry.
assay: PET hydrolysis product formed (TPA+MHET+BHET, UV-Vis) per mg enzyme (mmol/mg enzyme); higher = more PET depolymerisation activity; extreme values may be limits of the assay; settings: PET substrate: cryPow; 60 °C; pH 4.5; 24 h

1. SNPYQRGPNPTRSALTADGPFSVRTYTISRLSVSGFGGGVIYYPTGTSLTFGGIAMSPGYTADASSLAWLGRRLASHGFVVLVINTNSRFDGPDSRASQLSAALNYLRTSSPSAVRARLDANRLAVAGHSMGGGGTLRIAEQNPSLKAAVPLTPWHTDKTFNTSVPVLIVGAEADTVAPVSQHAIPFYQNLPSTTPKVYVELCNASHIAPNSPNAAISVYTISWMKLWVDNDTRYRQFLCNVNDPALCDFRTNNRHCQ [LCC-ICCG RIP]; 0.0235

Looking up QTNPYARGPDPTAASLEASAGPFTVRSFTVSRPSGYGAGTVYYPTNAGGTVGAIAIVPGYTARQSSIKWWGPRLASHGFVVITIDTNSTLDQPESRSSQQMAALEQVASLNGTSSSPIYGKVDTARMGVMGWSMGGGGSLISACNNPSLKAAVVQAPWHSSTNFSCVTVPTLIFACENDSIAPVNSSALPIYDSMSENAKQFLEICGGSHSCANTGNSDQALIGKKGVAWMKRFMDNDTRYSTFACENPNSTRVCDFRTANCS [Z1-PETase] , I see its PET hydrolysis product formed listed as 0

* * *

experiment: PET hydrolysis product formed (TPA+MHET+BHET, UV-Vis) per mg enzyme (mmol/mg enzyme); higher = more PET depolymerisation activity; extreme values may be limits of the assay; conditions: PET substrate: aFilm; 70 °C; pH 8.5; 24 h
recordedMetric: PET hydrolysis product formed
Enter a number only.

1. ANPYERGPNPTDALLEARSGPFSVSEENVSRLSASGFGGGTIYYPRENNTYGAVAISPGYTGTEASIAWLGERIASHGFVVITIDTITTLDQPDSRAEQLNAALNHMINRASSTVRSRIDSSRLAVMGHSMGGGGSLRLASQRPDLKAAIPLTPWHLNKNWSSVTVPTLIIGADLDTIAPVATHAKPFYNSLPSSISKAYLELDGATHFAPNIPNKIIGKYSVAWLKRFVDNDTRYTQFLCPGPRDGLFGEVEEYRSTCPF [TfCut2]; 0.0109
2. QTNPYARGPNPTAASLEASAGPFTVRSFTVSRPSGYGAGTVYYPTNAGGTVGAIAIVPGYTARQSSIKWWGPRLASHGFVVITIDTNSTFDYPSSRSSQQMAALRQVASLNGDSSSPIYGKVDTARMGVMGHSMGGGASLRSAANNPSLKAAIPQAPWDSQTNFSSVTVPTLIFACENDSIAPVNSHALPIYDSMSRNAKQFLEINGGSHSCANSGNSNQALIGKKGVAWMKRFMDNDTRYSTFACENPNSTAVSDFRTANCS [DuraPETase]; 0.00439
3. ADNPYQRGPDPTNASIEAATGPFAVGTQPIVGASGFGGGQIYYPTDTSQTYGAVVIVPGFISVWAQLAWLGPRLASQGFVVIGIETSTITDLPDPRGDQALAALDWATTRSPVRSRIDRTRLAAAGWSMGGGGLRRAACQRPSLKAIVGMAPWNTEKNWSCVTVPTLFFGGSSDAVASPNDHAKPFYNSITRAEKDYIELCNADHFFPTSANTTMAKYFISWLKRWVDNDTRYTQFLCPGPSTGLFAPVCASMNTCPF [CaPETaseM9]; 0
4. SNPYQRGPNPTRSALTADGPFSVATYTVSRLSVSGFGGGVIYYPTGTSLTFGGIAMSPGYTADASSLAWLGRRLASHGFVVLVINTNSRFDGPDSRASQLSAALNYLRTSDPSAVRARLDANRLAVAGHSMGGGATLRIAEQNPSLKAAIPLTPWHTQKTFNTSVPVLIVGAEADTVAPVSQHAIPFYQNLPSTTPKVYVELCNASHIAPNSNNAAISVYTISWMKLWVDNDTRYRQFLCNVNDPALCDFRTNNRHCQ [LCC-ICCG DAQI]; 0.1
5. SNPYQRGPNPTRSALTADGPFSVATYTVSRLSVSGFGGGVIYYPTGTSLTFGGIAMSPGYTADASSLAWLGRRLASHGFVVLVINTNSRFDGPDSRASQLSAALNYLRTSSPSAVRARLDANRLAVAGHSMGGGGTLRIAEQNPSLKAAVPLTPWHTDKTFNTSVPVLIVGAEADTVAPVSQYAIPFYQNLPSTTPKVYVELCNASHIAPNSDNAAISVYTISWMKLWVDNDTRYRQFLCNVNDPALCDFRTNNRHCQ [LCC-A2]; 0.171

// moving on: another record for PET hydrolysis product formed
Looking up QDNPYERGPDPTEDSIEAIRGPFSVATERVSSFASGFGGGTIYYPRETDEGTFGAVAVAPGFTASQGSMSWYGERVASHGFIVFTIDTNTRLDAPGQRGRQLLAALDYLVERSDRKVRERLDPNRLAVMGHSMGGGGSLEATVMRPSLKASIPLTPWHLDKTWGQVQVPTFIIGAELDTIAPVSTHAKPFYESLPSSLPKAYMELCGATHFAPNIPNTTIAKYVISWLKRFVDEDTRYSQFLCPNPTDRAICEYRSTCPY [Cut190*SS] , I see its PET hydrolysis product formed listed as 0

* * *

assay: PET hydrolysis product formed (TPA+MHET+BHET, UV-Vis) per mg enzyme (mmol/mg enzyme); higher = more PET depolymerisation activity; extreme values may be limits of the assay; settings: PET substrate: cryPow; 70 °C; pH 8.5; 24 h
Recorded PET hydrolysis product formed, one value per entry.
Enter a number only.

1. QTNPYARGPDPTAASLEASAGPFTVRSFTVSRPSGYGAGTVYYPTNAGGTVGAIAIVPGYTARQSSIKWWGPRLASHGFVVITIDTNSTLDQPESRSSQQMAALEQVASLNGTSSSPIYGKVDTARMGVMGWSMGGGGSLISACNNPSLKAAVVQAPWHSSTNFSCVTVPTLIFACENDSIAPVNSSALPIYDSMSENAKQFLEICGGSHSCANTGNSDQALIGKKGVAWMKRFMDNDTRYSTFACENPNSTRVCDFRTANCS [Z1-PETase]; 0.0403
2. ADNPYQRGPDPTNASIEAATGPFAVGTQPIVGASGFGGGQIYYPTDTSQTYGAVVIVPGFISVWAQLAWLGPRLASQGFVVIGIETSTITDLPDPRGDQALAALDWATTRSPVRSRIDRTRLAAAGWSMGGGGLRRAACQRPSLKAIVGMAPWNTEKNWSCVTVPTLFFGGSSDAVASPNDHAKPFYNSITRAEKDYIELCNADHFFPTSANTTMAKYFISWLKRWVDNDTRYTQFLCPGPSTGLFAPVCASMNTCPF [CaPETaseM9]; 0.0178
3. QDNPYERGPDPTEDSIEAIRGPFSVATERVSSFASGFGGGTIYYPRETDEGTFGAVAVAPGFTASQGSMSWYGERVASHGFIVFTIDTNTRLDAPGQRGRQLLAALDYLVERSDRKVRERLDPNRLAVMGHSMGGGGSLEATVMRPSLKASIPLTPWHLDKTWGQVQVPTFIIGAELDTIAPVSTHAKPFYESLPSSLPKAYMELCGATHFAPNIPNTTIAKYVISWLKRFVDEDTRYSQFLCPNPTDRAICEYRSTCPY [Cut190*SS]; 0.0112
4. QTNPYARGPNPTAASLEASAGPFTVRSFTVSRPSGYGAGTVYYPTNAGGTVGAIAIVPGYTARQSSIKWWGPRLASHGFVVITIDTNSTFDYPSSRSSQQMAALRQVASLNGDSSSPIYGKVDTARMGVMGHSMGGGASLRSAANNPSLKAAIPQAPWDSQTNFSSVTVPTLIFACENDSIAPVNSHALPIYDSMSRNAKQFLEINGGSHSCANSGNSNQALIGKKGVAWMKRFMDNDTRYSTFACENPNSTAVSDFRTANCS [DuraPETase]; 0.0236
5. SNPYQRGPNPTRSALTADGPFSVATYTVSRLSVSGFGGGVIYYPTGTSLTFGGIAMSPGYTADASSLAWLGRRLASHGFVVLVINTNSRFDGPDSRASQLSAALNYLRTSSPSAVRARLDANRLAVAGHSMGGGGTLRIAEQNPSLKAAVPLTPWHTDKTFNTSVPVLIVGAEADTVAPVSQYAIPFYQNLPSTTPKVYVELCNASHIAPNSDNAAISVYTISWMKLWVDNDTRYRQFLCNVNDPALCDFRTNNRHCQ [LCC-A2]; 0.0995
6. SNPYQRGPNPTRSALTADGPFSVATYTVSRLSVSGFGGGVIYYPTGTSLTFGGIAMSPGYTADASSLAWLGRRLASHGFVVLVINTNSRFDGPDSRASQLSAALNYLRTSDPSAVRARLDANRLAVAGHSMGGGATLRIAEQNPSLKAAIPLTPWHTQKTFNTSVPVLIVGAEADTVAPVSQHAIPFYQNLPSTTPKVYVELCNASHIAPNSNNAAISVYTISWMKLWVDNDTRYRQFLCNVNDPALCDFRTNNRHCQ [LCC-ICCG DAQI]; 0.0669
7. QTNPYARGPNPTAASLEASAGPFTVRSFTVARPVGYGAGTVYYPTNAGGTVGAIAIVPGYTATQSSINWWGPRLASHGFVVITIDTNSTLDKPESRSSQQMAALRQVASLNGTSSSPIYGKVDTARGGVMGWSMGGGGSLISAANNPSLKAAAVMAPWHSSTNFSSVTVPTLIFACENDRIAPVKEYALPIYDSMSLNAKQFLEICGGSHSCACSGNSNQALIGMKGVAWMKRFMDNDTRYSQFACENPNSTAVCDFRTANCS [HotPETase]; 0.0775
8. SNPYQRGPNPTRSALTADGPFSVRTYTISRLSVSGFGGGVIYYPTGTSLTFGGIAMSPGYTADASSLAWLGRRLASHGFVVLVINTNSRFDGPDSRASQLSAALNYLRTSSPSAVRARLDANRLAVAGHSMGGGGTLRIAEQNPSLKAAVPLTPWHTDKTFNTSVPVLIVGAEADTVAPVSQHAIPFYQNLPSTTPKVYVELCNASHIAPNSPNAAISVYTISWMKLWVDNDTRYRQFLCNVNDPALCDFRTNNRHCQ [LCC-ICCG RIP]; 0.0631

Looking up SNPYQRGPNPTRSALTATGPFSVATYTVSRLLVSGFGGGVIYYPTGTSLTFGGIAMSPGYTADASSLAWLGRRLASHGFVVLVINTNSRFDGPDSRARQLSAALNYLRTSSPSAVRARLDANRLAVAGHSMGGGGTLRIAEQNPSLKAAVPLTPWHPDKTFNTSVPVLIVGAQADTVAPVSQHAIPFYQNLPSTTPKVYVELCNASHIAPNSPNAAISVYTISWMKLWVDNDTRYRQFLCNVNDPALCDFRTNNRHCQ [LCC-ICCG I6M] , I see its PET hydrolysis product formed listed as 0.0495

Looking up SNPYQRGPNPTRSALTADGPFSVATYTVSRLSVSGFGGGVIYYPTGTSLTFGGIAMSPGYTADASSLAWLGRRLASHGFVVLVINTNSRFDGPDSRASQLSAALNYLRTSSPSAVRARLDANRLAVAGHSMGGGGTLRIAEQNPSLKAAVPLTPWHTDKTFNTSVPVLIVGAEADTVAPVSQHAIPFYQNLPSTTPKVYVELCNASHIAPNSNNAAISVYTISWMKLWVDNDTRYRQFLCNVNDPALCDFRTNNRHCQ [LCC-ICCG] , I see its PET hydrolysis product formed listed as 0.0667

Looking up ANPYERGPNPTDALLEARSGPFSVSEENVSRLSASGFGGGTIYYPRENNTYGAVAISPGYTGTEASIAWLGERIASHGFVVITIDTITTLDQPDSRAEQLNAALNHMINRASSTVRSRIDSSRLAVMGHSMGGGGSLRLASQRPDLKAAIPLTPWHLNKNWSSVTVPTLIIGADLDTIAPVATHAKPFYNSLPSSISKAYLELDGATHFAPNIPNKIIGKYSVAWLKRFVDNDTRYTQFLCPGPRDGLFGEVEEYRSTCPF [TfCut2] , I see its PET hydrolysis product formed listed as 0
